Recorded values, source the supplement of paper PMC10567573.

B1: ZBED2 (parent)
chain: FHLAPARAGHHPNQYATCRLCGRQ

# Variants of: B1
# Assay details: protein stability index of a GFP-peptide fusion (GPS, HEK-293T) (PSI 1-6); higher = more stable;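 also: lentivirally expressed fusions sorted by FACS into six bins by GFP to DsRed ratio, PSI derived from sequencing read proportions per bin multiplied by bin number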
# Stated conditions: c terminus: a fixed tail appended
Catalogue of protein stability index readings, one per entry.
Provide a numeric answer; units are not to be included.

P12V = 1.49

For `A8D` , what is its reported protein stability index?
1.36

And what about the variant `P12A` ?
1.5

And what about the variant `N13M` ?
1.52
